Experiment: recombinant barcode read abundance after kanamycin selection (control-corrected) (log10(CPM+1)); higher = more efficient recombination; sequences stand for … in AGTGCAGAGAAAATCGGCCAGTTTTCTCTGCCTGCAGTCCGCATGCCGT…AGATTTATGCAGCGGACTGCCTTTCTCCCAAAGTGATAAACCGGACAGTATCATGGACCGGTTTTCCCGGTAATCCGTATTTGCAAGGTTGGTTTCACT; site = the 11-nt target
TEST READOUT: recombinant barcode read abundance (log10)

Below, 5 sequences whose answers are already recorded.
INSERT INTO measurements (chain_sequence, result) VALUES
  ('TAAGGAGCTTGGGTTCTAACCTGTTGCCT (site TAGGGCGCTAG)', 0.0289),
  ('ACATGGGCTTGGGTTCTAACCTGTTGCCG (site ACATGGGCTCG)', 0.695),
  ('CGACATCCTTGGGTTCTAACCTGTTGCCT (site CGAGATCCTAG)', 0.409),
  ('GGCTTCCCTTGGGTTCTAACCTGTTGCCT (site GGCATCCCTAG)', 0.299),
  ('ACCAAATCTTGGGTTCTAACCTGTTGCTA (site ACCAAATCTCG)', 0.356);

## Input Return reported recombinant barcode read abundance (log10); argument: GCCTAGTCTTGGGTTCTAACCTGTTGCCA (site TCCTAGTCTTG)
## Output 0.0302

## Input Return reported recombinant barcode read abundance (log10); argument: ATAAGGACTTGGGTTCTAACCTGTTGCTA (site ATACGGACTTA)
## Output 0.111

## Input Return reported recombinant barcode read abundance (log10); argument: CCATACGCTTGGGTTCTAACCTGTTGCCT (site CGAGACGCTAG)
## Output 0.189

## Input Return reported recombinant barcode read abundance (log10); argument: AGGGCCTCTTGGGTTCTAACCTGTTGCAG (site GGGGCCTCTTT)
## Output 0.118

----------
Reported recombinant UMI read abundance (log10) by item:
Test: recombinant UMI read abundance after kanamycin selection (control-corrected) (log10(CPM+1)); higher = more efficient recombination; extreme values may be limits of the assay; sequences stand for … in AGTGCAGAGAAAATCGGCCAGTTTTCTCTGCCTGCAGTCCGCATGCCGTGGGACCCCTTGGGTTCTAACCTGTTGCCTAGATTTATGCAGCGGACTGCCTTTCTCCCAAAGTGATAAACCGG…AGGTTGGTTTCACT; site = the 11-nt donor
# print the numeric value only

Below, 6 sequences whose answers are already recorded.
INSERT INTO assay_data (chain_sequence, test_readout, number) VALUES
  ('CGGAATCCATGGACCGGTTTTCCCGGTAATCCGTATTTGTG (site CGGAATCCTAA)', 'recombinant UMI read abundance (log10)', 0),
  ('GCTGCTGCATGGACCGGTTTTCCCGGTAATCCGTATTTGCC (site GCTCCTGCTGG)', 'recombinant UMI read abundance (log10)', 0),
  ('TTGTGGACATGGACCGGTTTTCCCGGTAATCCGTATTTGTA (site TTGTGGACTTA)', 'recombinant UMI read abundance (log10)', 1.6),
  ('CACACATCATGGACCGGTTTTCCCGGTAATCCGTATTTGCC (site CACACATCTGG)', 'recombinant UMI read abundance (log10)', 2.15),
  ('ATTTCTCCATGGACCGGTTTTCCCGGTAATCCGTATTTGAC (site ATTTCTCCTGT)', 'recombinant UMI read abundance (log10)', 0),
  ('CTAGCATCATGGACCGGTTTTCCCGGTAATCCGTATTTGAA (site CTAGTATCTGT)', 'recombinant UMI read abundance (log10)', 0);

## Input Return reported recombinant UMI read abundance (log10); argument: AGGGAGTCATGGACCGGTTTTCCCGGTAATCCGTATTTGCC (site CGGGAGTCTGG)
## Output 0.995

## Input Return reported recombinant UMI read abundance (log10); argument: CAAGTAGCATGGACCGGTTTTCCCGGTAATCCGTATTTGCT (site CAAGTAGCTAG)
## Output 1.66

----------
Assay: recombinant UMI read abundance after kanamycin selection (control-corrected) (log10(CPM+1)); higher = more efficient recombination; extreme values may be limits of the assay; sequences stand for … in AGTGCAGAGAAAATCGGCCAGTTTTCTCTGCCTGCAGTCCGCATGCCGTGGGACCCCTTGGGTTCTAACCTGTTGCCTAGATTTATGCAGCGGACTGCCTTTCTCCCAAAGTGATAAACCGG…AGGTTGGTTTCACT; site = the 11-nt donor
TEST READOUT: recombinant UMI read abundance (log10)

## Input Return reported recombinant UMI read abundance (log10); argument: GACCCGCCATGGACCGGTTTTCCCGGTAATCCGTATTTGTG (site GACCCGCCTCA)
## Output 0.0171

## Input Return reported recombinant UMI read abundance (log10); argument: GGCGTGGCATGGACCGGTTTTCCCGGTAATCCGTATTTGGT (site GGTGTGGCTAC)
## Output 0.00854

## Input Return reported recombinant UMI read abundance (log10); argument: GTGACGCCATGGACCGGTTTTCCCGGTAATCCGTATTTGTG (site GTGACGCCTCA)
## Output 0

## Input Return reported recombinant UMI read abundance (log10); argument: CGTCTGGCATGGACCGGTTTTCCCGGTAATCCGTATTTGCT (site CGTGTGGCTAG)
## Output 0.00552

## Input Return reported recombinant UMI read abundance (log10); argument: ATGGGCCCATGGACCGGTTTTCCCGGTAATCCGTATTTGTC (site ATGGGCCCTGA)
## Output 0.504

----------
Assay: recombinant UMI read abundance after kanamycin selection (control-corrected) (log10(CPM+1)); higher = more efficient recombination; extreme values may be limits of the assay; sequences stand for … in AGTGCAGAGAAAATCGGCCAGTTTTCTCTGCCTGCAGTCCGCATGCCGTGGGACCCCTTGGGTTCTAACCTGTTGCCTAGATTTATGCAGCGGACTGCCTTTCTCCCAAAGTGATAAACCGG…AGGTTGGTTTCACT; site = the 11-nt donor
Everything with recombinant UMI read abundance (log10) lower than 0.02 is 0 (no); everything else, including exactly 0.02, is 1 (yes).

INSERT INTO assay_data (chain_sequence, group) VALUES
  ('GGCAATCCATGGACCGGTTTTCCCGGTAATCCGTATTTGAG (site GGCAATCCTAT)', '0 (no)');

## Input Is the recorded value of recombinant UMI read abundance (log10) equal to or greater than 0.02 for this sequence? CAAGCGCCATGGACCGGTTTTCCCGGTAATCCGTATTTGTG (site CAAGAGCCTCA)
## Output 0 (no)

## Input Is the recorded value of recombinant UMI read abundance (log10) equal to or greater than 0.02 for this sequence? CAAACGCCATGGACCGGTTTTCCCGGTAATCCGTATTTGTG (site CAAGCGCCTCA)
## Output 1 (yes)

## Input Is the recorded value of recombinant UMI read abundance (log10) equal to or greater than 0.02 for this sequence? AGGAAGACATGGACCGGTTTTCCCGGTAATCCGTATTTGGA (site AGGAAGACTTC)
## Output 1 (yes)

## Input Is the recorded value of recombinant UMI read abundance (log10) equal to or greater than 0.02 for this sequence? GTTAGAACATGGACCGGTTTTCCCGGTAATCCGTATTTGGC (site GTTGGAACTGC)
## Output 1 (yes)

## Input Is the recorded value of recombinant UMI read abundance (log10) equal to or greater than 0.02 for this sequence? GCATGGCCATGGACCGGTTTTCCCGGTAATCCGTATTTGCA (site GGATGGCCTTG)
## Output 0 (no)

## Input Is the recorded value of recombinant UMI read abundance (log10) equal to or greater than 0.02 for this sequence? AAGAACGCATGGACCGGTTTTCCCGGTAATCCGTATTTGGG (site AAGCACGCTCC)
## Output 1 (yes)

## Input Is the recorded value of recombinant UMI read abundance (log10) equal to or greater than 0.02 for this sequence? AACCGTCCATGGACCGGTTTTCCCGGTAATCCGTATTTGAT (site AGCCGTCCTAT)
## Output 1 (yes)

----------
Reported recombinant barcode read abundance (log10) by item:
Test: recombinant barcode read abundance after kanamycin selection (control-corrected) (log10(CPM+1)); higher = more efficient recombination; sequences stand for … in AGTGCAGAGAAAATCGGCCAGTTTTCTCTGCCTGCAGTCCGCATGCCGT…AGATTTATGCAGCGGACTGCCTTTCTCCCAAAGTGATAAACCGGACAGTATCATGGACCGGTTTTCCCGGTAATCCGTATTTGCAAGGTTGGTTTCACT; site = the 11-nt target
# print the numeric value only

INSERT INTO assay_data (chain_sequence, number) VALUES
  ('TCGTGCCCTTGGGTTCTAACCTGTTGCCT (site TCGTGCACTAG)', 0.0746),
  ('AGAGAGTCTTGGGTTCTAACCTGTTGCTT (site AGAGAGTCTAA)', 1.99),
  ('TTACTCTCTTGGGTTCTAACCTGTTGCCT (site TTACTCTCTAG)', 2.13),
  ('GAACTCTCTTGGGTTCTAACCTGTTGCTA (site GAACTCTCTTA)', 1.66),
  ('GCACACCCTTGGGTTCTAACCTGTTGCCT (site GCACACCCTAG)', 1.1);

## Input Return reported recombinant barcode read abundance (log10); argument: CACCGTTCTTGGGTTCTAACCTGTTGCTT (site CATCGCTCTAA)
## Output 0.0503

## Input Return reported recombinant barcode read abundance (log10); argument: ATGGCCTCTTGGGTTCTAACCTGTTGCCT (site ATGGCCTCTAG)
## Output 2.2

## Input Return reported recombinant barcode read abundance (log10); argument: CTACCTTCTTGGGTTCTAACCTGTTGCCT (site CAACCTTCTAG)
## Output 0.203

## Input Return reported recombinant barcode read abundance (log10); argument: GGCCTCCCTTGGGTTCTAACCTGTTGCAT (site CGCCTCCCTAT)
## Output 0.0328

## Input Return reported recombinant barcode read abundance (log10); argument: TATCGGGCTTGGGTTCTAACCTGTTGCAG (site ATGGACCCTGA)
## Output 0.0316

## Input Return reported recombinant barcode read abundance (log10); argument: CTAAGAGCTTGGGTTCTAACCTGTTGCCG (site CTAAGAGCTCT)
## Output 0.504

## Input Return reported recombinant barcode read abundance (log10); argument: TATTATCCTTGGGTTCTAACCTGTTGCCT (site TATTAGCCTAG)
## Output 0.121

## Input Return reported recombinant barcode read abundance (log10); argument: TTAACTACTTGGGTTCTAACCTGTTGCTA (site TTAACTACTCA)
## Output 0.0937

## Input Return reported recombinant barcode read abundance (log10); argument: GGGATCCCTTGGGTTCTAACCTGTTGCGG (site GGGATCCCTCC)
## Output 2

## Input Return reported recombinant barcode read abundance (log10); argument: CACATTCCTTGGGTTCTAACCTGTTGCCT (site CACATTCCTAG)
## Output 0.17
